# credit: the supplement of paper PMC10724198

Test system: Saccharomyces cerevisiae
run.description: protein stability index of tFT-peptide fusion in deletion strain of DAS1 (PSI (0-1 scale)); higher = more stable (slower turnover)
measured.endpoint: protein stability index
Respond with the number and no other words.

biosequence | measured.endpoint | recorded.value
RHIQPLPVQFLN | protein stability index | 0.588
KKHKKGQKQKIT | protein stability index | 0.598
IKHKKGQKQKIN | protein stability index | 0.608
KKHKKGQRQKIN | protein stability index | 0.599

// next entry
Input line: Returns the measured protein stability index for the input sequence. Input: ARWRQGLWRGAS
Output line: 0.616

---

Tested on: Saccharomyces cerevisiae
run.description: protein stability index of tFT-peptide fusion (C-terminal peptide) (PSI (0-1 scale)); higher = more stable (slower turnover)
recorded.conditions: genetic background: wild type; temperature: 30 C
measured.endpoint: protein stability index
Respond with the number and no other words.

biosequence | assay.system | protein stability index
GGGRGRWGPEGE | Saccharomyces cerevisiae | 0.69

Input line: # returns recorded protein stability index (system: Saccharomyces cerevisiae) for VDPAPPRRPPRY
Output line: 0.694

---

Here the recorded protein stability index is given for each entry.
Tested on: Saccharomyces cerevisiae
run.description: protein stability index of tFT-peptide fusion (C-terminal peptide) (PSI (0-1 scale)); higher = more stable (slower turnover)
recorded.conditions: genetic background: wild type; temperature: 30 C
Respond with the number and no other words.

Guide cases for protein stability index, answers given:
biosequence | assay.system | protein stability index
REPFCVVGGREG | Saccharomyces cerevisiae | 0.681
SLQTRANTGLWT | Saccharomyces cerevisiae | 0.689
QQNKKKKTRKSG | Saccharomyces cerevisiae | 0.704
KNKTTKKRKKRP | Saccharomyces cerevisiae | 0.695
VLSSSTLFFLVF | Saccharomyces cerevisiae | 0.584

Input line: Returns the measured protein stability index for the input sequence. Input: LRPLVRLLHSYP
Output line: 0.718

Input line: Returns the measured protein stability index for the input sequence. Input: GIKKNQVSIRYI
Output line: 0.606

Input line: Returns the measured protein stability index for the input sequence. Input: HMLSGRSFVRGD
Output line: 0.69

Input line: Returns the measured protein stability index for the input sequence. Input: PTGQSSVESGAG
Output line: 0.693

Input line: Returns the measured protein stability index for the input sequence. Input: PSPSPPRLLPPP
Output line: 0.7

Input line: Returns the measured protein stability index for the input sequence. Input: KKKKKNTIKKNK
Output line: 0.708

Input line: Returns the measured protein stability index for the input sequence. Input: SKTQRAQSGNSA
Output line: 0.699

Input line: Returns the measured protein stability index for the input sequence. Input: GCLLVVAGGGRG
Output line: 0.698

---

Tested on: Saccharomyces cerevisiae
run.description: protein stability index of tFT-peptide fusion (C-terminal peptide) (PSI (0-1 scale)); higher = more stable (slower turnover)
recorded.conditions: genetic background: wild type; temperature: 37 C
Here the recorded protein stability index is given for each entry.
Respond with the number and no other words.

Input line: # returns recorded protein stability index (system: Saccharomyces cerevisiae) for LFTVCMIIQMVH
Output line: 0.173

---

System: Saccharomyces cerevisiae
run.description: protein stability index of tFT-peptide fusion (C-terminal peptide) (PSI (0-1 scale)); higher = more stable (slower turnover)
recorded.conditions: genetic background: wild type; temperature: 30 C
Could you label it t if measured protein stability index is 0.7 or higher, and f otherwise?

biosequence | classification
RQYCTRDHNIIK | t
EREREKGEEEEG | f
PQPLYAPFPPPL | t

Would you kindly look at the next entry?
Input line: // inclusive: protein stability index at least 0.7? input: PMRAALIIFLVR
Output line: f
